The measured values listed here are drawn from the supplement of paper PMC6555819.

# Test system: RARa homodimer (NR concentration 270 nM)
# Assay details: PBM binding z-score (relative to random genomic background probes); higher = stronger binding; sequences stand for … in GC…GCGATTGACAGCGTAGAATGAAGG
Binned PBM binding z-score; ranges: L: < 0.1; M: ≥ 0.1 and < 1; H: ≥ 1

Which class holds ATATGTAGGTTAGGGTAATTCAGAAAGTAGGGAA ? H

Class for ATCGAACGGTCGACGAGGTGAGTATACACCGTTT ? L

Which bin should I file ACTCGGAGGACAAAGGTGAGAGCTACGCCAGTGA under? L

Please report the category associated with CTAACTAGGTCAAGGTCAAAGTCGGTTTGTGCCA , nothing else. M

State the class of the sequence shown: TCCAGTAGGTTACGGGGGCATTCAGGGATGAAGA M

For GATACGGGGTCAGCTAGAGGCCAGAGTATGGAAA , which PBM binding z-score bin applies? M

Which bin should I file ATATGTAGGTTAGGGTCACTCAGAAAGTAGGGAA under? H

Quick check: band for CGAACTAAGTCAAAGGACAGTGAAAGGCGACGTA L

Which class holds TCGAGTAGGGTACGGGGGCATTCAGGGATGAAGA ? M

Lab note: sort CTATTTAGGTTAAGGGGGTCATTCAGTTTGAAAG into the matching PBM binding z-score band. H

Where would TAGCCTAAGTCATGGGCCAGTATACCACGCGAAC land among the classes by reported PBM binding z-score? L

Input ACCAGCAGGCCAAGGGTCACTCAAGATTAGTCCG ; output its category L

Categorize the following entry: CCGAGTAGGATACGAGGGGGCATTCAGTGCGAAT L

Each sequence maps to one class by PBM binding z-score. Which class for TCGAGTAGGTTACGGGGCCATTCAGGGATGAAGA ? L

State the band of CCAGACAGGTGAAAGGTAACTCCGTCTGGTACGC L

Tag the class for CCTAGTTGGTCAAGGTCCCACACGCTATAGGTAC M

Looking at CCGAGTAGGTCACGAGGGGGCATTCAGTGCGAAT , which class would you pick? H

In plain terms, what class is CTCGAAAGGTCGGTTGAGGTGAGTAAACGGATAA ? M

Band of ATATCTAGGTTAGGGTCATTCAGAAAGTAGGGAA ? H

Note: place this sequence into its band. Item: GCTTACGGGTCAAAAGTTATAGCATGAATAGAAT M

Bin? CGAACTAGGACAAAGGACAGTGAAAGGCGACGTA L

Hello team, could you let me know which band the following sequence falls into: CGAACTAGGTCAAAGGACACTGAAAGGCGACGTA M

# bin lookup: classify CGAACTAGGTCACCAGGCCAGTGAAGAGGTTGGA by its PBM binding z-score L

Please report the category associated with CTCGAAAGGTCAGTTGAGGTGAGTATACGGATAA , nothing else. H

Which category does the recorded PBM binding z-score put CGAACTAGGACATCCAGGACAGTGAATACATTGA in? M

# bin lookup: classify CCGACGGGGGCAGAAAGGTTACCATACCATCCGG by its PBM binding z-score M

Note: place this sequence into its band. Item: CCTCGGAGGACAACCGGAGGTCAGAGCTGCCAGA L

Tag the class for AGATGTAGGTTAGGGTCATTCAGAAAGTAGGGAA H

Exercise: read the entry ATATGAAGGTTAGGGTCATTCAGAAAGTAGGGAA and state which class it falls under. H

Entry CTATGTTGGTTAAGGGGGTCATTCAGTTTGAAAG belongs to which category? H

Class for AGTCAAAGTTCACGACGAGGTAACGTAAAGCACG ? H

State the class of the sequence shown: TCTTGTAGGTCAAAGGTTAAGAAAGCCGAAGCCT M

Into which category would you place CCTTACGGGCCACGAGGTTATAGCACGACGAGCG ? L

Into which category would you place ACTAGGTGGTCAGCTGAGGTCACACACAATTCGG ? M

Bin this entry: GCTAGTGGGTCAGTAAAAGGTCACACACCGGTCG H

Band assignment needed for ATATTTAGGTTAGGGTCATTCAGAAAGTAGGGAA please. H

Using the reported PBM binding z-score, which band applies to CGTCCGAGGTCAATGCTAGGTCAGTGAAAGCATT ? M

Assign a category based on measured PBM binding z-score for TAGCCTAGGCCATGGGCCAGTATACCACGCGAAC and give only the class name. L

Would you mind sorting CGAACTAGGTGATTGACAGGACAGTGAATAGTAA into the appropriate category? M

Could you tell me which band TCGAGTAGGTTACGGGGACATTCAGGGATGAAGA belongs to? L

Band of CATACACGGTCAGCTAGGCCAGAGTAGGGACGGC ? M

Note: place this sequence into its band. Item: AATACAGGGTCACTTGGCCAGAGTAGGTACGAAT M

Exam item: assign CAAACTAGGTCAAGGGGTCAAAGTCCGCTTCCCG to the correct category. H

Band assignment needed for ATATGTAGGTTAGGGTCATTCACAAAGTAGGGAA please. H

Pick a category. Item: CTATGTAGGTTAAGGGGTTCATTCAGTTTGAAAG H

Which band does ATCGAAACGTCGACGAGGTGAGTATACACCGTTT fall in? M

Place this sequence in its band: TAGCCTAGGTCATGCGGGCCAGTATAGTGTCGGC L

Into which bin does this sequence go? CATACAGGGTCCGCTAGGCCAGAGTAGGGACGGC L

Any idea which band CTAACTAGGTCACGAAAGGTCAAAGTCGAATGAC is in? H

GET /class?item= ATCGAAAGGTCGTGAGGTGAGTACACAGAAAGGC M
